Test system: ACHN renal
Assay: NCI tumour cell line growth inhibition, 48 h
measured-quantity: GI50

COc1cc(/C=C/C(=O)CC(=O)/C=C/c2cc(OC)c(O)c(OC)c2)cc(OC)c1O = 42.2 µM
O=C(Nc1ccc(-n2cc(-c3ccncc3)c(-c3ccc(O)c(Cl)c3)n2)cc1)c1ccc(Cl)c(C(F)(F)F)c1 = 1.8 µM
Cc1nc(NS(=O)(=O)c2ccc(NCN3C(=O)c4ccccc4C3=O)cc2)oc1C = > 100 µM
O=C1NC(=O)C(c2cccc(Cl)c2)=C1Nc1ccc(Cl)c(C(=O)O)c1 = > 25 µM
O=C1CS/C(=N/S(=O)(=O)c2ccc(N3N=C4c5ccccc5CC4C3c3cccs3)cc2)N1C(=O)c1ccccc1 (configuration not stated) = 39 µM
CC(C)=Cc1cc(C)c2ccc(C)c3c2c1C(C)=C(O)C3=O = > 100 µM
Nc1c(C(=O)c2cccc(C(O)CO)c2)cnn1-c1ccc(F)cc1 (configuration not stated) = > 25 µM

---

Test system: BT-549 breast
Assay: NCI tumour cell line growth inhibition, 48 h
The following compounds are shown together with reported GI50 values.
measured-quantity: GI50

N#CC1=C(N)NC(N2CCOCC2)=NC12Nc1ccccc1O2 (centres undefined) = 43.5 µM
Cc1nc(NS(=O)(=O)c2ccc(NCN3C(=O)c4ccccc4C3=O)cc2)oc1C = > 100 µM
CN1CCN(CCCOc2ccc3nc(Nc4ccc(F)c(F)c4)ccc3c2)CC1 = 2.34 µM
CC12OC(C(=O)C13CC3)C1C(=O)c3c(O)ccc(O)c3C(=O)C12 (centres undefined) = 22.1 µM

---

Test system: K-562 leukemia
Assay: NCI tumour cell line growth inhibition, 48 h
measured-quantity: GI50

CN1CCN(CCCOc2ccc3nc(Nc4ccc(F)c(F)c4)ccc3c2)CC1 = 1.37 µM
C=C(C(=O)OC)[C@@H]1CC2OC1C(=O)C(C)CCC/C(C)=C/CC[C@@]2(C)O (stereo partly specified) = 18.9 µM
Cc1c(Nc2nccc3cc(CN4CC[C@@H](O)C4)cnc23)cccc1-c1cccc(-c2nc3cc(CN4CC[C@@H](C(=O)O)C4)cc(C#N)c3o2)c1C = 1.44 µM
O=C1OCC2=C1C(c1cccc(C(F)(F)F)c1)c1cc3c(cc1N2CCO)OCCO3 (stereo unspecified) = 0.881 µM
OCCCCC#Cc1ccccc1C#Cc1cccnc1 = 23.9 µM
CC(C)=Cc1cc(C)c2ccc(C)c3c2c1C(C)=C(O)C3=O = 10.3 µM

---

System: RPMI-8226 leukemia
Assay: NCI tumour cell line growth inhibition, 48 h
The following compounds are shown together with reported TGI values.
measured-quantity: TGI

O=C1c2ccncc2C(=O)c2c(O)ccc(O)c21 = 30.4 µM
COC(=O)CC1(O)C=CC(=O)C=C1 = 31.4 µM
C=C(Br)C[N+]12CN3CN(CN(C3)C1)C2 = > 100 µM
Nc1ccc2c(=O)cc(-c3ccc(Br)s3)[nH]c2n1 = > 100 µM
[N-]=[N+]=Nc1nc2ccccc2c(N=[N+]=[N-])c1Cl = > 100 µM
COc1cccc(C(C#N)NNC(=O)c2c(Cl)c(Cl)c(Cl)c(Cl)c2-c2nc3ccc(C(=O)c4ccccc4)cc3[nH]2)c1O (stereo not drawn) = > 100 µM
COC(=O)/C=C\n1nc(Br)c(=O)[nH]c1=O = > 100 µM
N/N=C(/N)SCCCCCCCCCCS/C(N)=N/N = 70.8 µM
O=C(c1ccccc1)c1nnn(Cc2ccccc2Cn2nnc(C(=O)c3ccccc3)c2C(=O)c2ccccc2)c1C(=O)c1ccccc1 = > 100 µM
Cc1ccc(S(=O)(=O)n2cc([C@@]3(O)C[C@H](CSC#N)OC3=O)c3ccccc32)cc1 = 40.1 µM
O=C1c2ccccc2C2(c3ccc(F)cc3)NCCN12 (stereo not drawn) = > 100 µM
COc1cc2c(cc1OC)C(C(CBr)CBr)N(C1CCCC1)CC2 (stereo not drawn) = > 100 µM
C=C(C(=O)OC)[C@@H]1CC2OC1C(=O)C(C)CCC/C(C)=C/CC[C@@]2(C)O (stereo partly drawn) = 61.2 µM
CC(C)(C)c1cc(OCc2nnc3sc(Cc4ccccc4)nn23)c(Cl)cc1OCc1nnc2sc(Cc3ccccc3)nn12 = > 100 µM
Nc1nc(Cl)nc2c1ncn2C1OC(CO)C(O)C1F (stereo not drawn) = > 100 µM
O=CC(O)C(O)C(O)C(O)COC(=O)NCCCCC(=O)C(F)(F)C(F)(F)C(F)(F)C(F)(F)C(F)(F)C(F)(F)C(F)(F)F (stereo not drawn) = > 100 µM
O=c1cc[nH]cc1-c1c[nH]ccc1=O = > 100 µM
OCCCCC#Cc1ccccc1C#Cc1cccnc1 = > 100 µM
CC1=NN(c2ccccc2)C(=O)C12[C@H](c1ccccc1)C2(C#N)C#N (stereo partly drawn) = 4.08 µM
CCCCCCC(=O)C/C(CCC(=O)N(Cc1ccccc1)Cc1ccccc1)=N\NC(N)=O = > 100 µM
Cc1ccc(N=C/C=C(\Nc2ccc(C)cc2)c2ccc3ccccc3c2)cc1 = 2.56 µM
CCCCC#Cc1c(I)n(C2OC(CO[Si](C)(C)C(C)(C)C)C3OC(C)(C)OC32)c(=O)n(C(=O)c2ccccc2)c1=O (stereo not drawn) = 17.4 µM
COc1ccc(NC(=O)CC(=O)N/N=C(\C)c2cc3ccccc3oc2=O)cc1 = > 100 µM
O=c1cc(N2CCOCC2)n2c(ccc3ccccc32)n1 = > 100 µM
Cc1cc(C)c2c(c1)C/C(=C\c1cccc(C)c1C(=O)O)C2=O = > 100 µM
Cc1cc2c(c(C(=O)NCC(=O)O)c1)Oc1c(cc(C)cc1C(=O)NCC(=O)O)S2 = > 100 µM
Cc1ccccc1-n1c(=S)[nH]c2c(sc(=O)n2-c2ccccc2C)c1=O = > 100 µM
COC(=O)/C(C#N)=C1\CCC(OC)N1C (stereo not drawn) = > 100 µM
Cc1ccc(N2C(=O)C3CSCN3C2=O)cc1 (stereo not drawn) = > 100 µM
COc1cc(C2c3cc4c(cc3OC(O)C2C)OCO4)cc(OC)c1OC (stereo not drawn) = 2.07 µM
C=C(C)[C@@H]1CCc2c(O)c(O)c(=O)cc(C)c2C1 = > 100 µM
O=c1[nH]c2ccccc2c(O)c1/C=N/C(=S)NC1CCCCC1 = > 100 µM
FC(F)c1ncc(-c2ccc(C(F)(F)F)cc2)c(NC2CCCCCC2)n1 = > 10 µM
CSc1nnc(SCc2nn3c(=O)cc(C)nc3s2)s1 = > 100 µM
CC/C=C/c1cc2c(cc1O)CCC1C2CC[C@@]2(C)C1CC[C@@H]2O (stereo partly drawn) = 6.46 µM
O=C1C=CC(=O)c2c1ccc1c3ccccc3n(Cc3ccccc3)c21 = 34.6 µM
COc1cc(S(=O)(=O)Nc2nc(-c3ccc(N4C(=O)C(C)SC4c4ccccc4O)cc3)cs2)ccc1Cl (stereo not drawn) = > 100 µM
COc1cc(Cl)c(CC(=O)c2c[nH]c3ccccc23)cc1OC = > 100 µM
CN1CCN(CCCOc2ccc3nc(Nc4ccc(F)c(F)c4)ccc3c2)CC1 = 6.3 µM
CC(c1ccccc1)n1cncc1C(=O)NN1CCN(C)CC1 (stereo not drawn) = > 10 µM
COC(=O)c1c2c(cc3c1CC1(Cc4cc5c(c(C)c4C1)CCC5)C3)CCC2 (stereo not drawn) = > 100 µM
COc1ccc2nc(C)cc(Sc3nc4ccccc4s3)c2c1 = 2.16 µM
O=c1cc(-c2ccccc2)[nH]c2c1CCCC2 = > 100 µM

---

System: NCI-H23 lung
Assay: NCI tumour cell line growth inhibition, 48 h; in the data active means GI50 below about 0.43 µM; inactive means the rest
Outcome codes: label 1 (active), label 0 (inactive)

COc1cc(/C=C/C(=O)CC(=O)/C=C/c2cc(OC)c(O)c(OC)c2)cc(OC)c1O = label 0
O=C1OCC2=C1C(c1cccc(C(F)(F)F)c1)c1cc3c(cc1N2CCO)OCCO3 (stereo not given) = label 0
CC(C)C[C@H](NC(=O)Cn1cccc(CNC(=O)c2ccccc2)c1=O)B(O)O = label 0
O=C(O)Cn1c2c(c3c1-c1ccccc1C3=O)C(=O)CCC2 = label 0
O=C1NC(=O)C(=Cc2cn(Cc3ccccc3)c3ccccc23)C(=O)N1 = label 0
CC12CCC(=O)C(O1)C1C(=O)c3ccc4c(ccc5ccccc54)c3C(=O)C12 (stereo not given) = label 0
CN1CCN(Cc2ccc(NC(=O)c3[nH]ncc3Nc3ncnc4[nH]ccc34)cc2)CC1 = label 1
COc1cc2nc(N3CCC[C@H](NC4=CC(=O)c5ccccc5C4=O)C3)nc(N)c2cc1OC = label 0
CC12OC(C(=O)C13CC3)C1C(=O)c3c(O)ccc(O)c3C(=O)C12 (stereo not given) = label 0
CCC[CH2][Sn]([CH2]CCC)([CH2]CCC)/[C](=C/[Si](C)(C)c1ccccc1)c1ccc2c(c1)OCO2 = label 0
CCCCCCCC(=O)[O-].CCCCCCCC(=O)[O-].N.N.N.N.[Co+3].[O-][Cl+3]([O-])([O-])[O-] = label 0
COc1ccc2nc(C)cc(Sc3nc4ccccc4s3)c2c1 = label 0
COC1=C(OC)C(=O)C(C/C=C(\C)CC/C=C(\C)CC/C=C(\C)CC/C=C(\C)CC/C=C(\C)CC/C=C(\C)CC/C=C(\C)CC/C=C(\C)CC/C=C(\C)CCC=C(C)C)=C(C)C1=O = label 0
Cc1ccc(S(=O)(=O)n2cc([C@@]3(O)C[C@H](CSC#N)OC3=O)c3ccccc32)cc1 = label 0
OCCCCC#Cc1ccccc1C#Cc1cccnc1 = label 0
